# key: entry, value: Absorption wavelength
Assay: Absorption/emission wavelength of the compounds (Table 1)
Type: physicochemical
Conditions: DMSO
A complete answer gives the number followed by the unit.

Reference set (10 entries):
[[record]]
molecule = "CCN1/C(=C/C=C2\\CC(C(C)(C)C(=O)OC)CC(/C=C/C3=[N+](CC)c4ccc5cc(OC)ccc5c4C3(C)C)=C2Sc2ccc(C(=O)NCCN)cc2)C(C)(C)c2c1ccc1cc(OC)ccc21.[I-] (centres unmarked)"
experimental_readout = "Absorption wavelength"
measurement = "857 nm"

[[record]]
molecule = "CCN1/C(=C/C=C2\\CC(c3ccc(C(=O)OC)cc3)CC(/C=C/C3=[N+](CC)c4ccc5cc(OC)ccc5c4C3(C)C)=C2Cl)C(C)(C)c2c1ccc1cc(OC)ccc21.[I-] (centres unmarked)"
experimental_readout = "Absorption wavelength"
measurement = "843 nm"

[[record]]
molecule = "CCN1/C(=C/C=C2\\CC(C(C)(C)C(=O)OC)CC(/C=C/C3=[N+](CC)c4ccc5cc(Br)ccc5c4C3(C)C)=C2Cl)C(C)(C)c2c1ccc1cc(Br)ccc21.[I-] (centres unmarked)"
experimental_readout = "Absorption wavelength"
measurement = "833 nm"

[[record]]
molecule = "CCN1/C(=C/C=C2\\CC(C(C)(C)C(=O)OC)CC(/C=C/C3=[N+](CC)c4ccc5cc(S(=O)(=O)O)ccc5c4C3(C)C)=C2Cl)C(C)(C)c2c1ccc1cc(S(=O)(=O)O)ccc21 (centres unmarked)"
experimental_readout = "Absorption wavelength"
measurement = "833 nm"

[[record]]
molecule = "CCN1/C(=C/C=C2\\CC(c3ccc(C(=O)OC)cc3)CC(/C=C/C3=[N+](CC)c4ccc5cc(S(=O)(=O)O)ccc5c4C3(C)C)=C2Cl)C(C)(C)c2c1ccc1cc(S(=O)(=O)O)ccc21 (centres unmarked)"
experimental_readout = "Absorption wavelength"
measurement = "833 nm"

[[record]]
molecule = "CCN1/C(=C/C=C2\\CC(C(C)(C)C)CC(/C=C/C3=[N+](CC)c4ccc5cc(OC)ccc5c4C3(C)C)=C2Sc2ccc(C(=O)NCCN)cc2)C(C)(C)c2c1ccc1cc(OC)ccc21.[I-] (centres unmarked)"
experimental_readout = "Absorption wavelength"
measurement = "857 nm"

[[record]]
molecule = "CCN1/C(=C/C=C2\\CC(C(C)(C)C(=O)OC)CC(/C=C/C3=[N+](CC)c4ccc5cc(OC)ccc5c4C3(C)C)=C2Sc2ccc(C(=O)[O-])cc2)C(C)(C)c2c1ccc1cc(OC)ccc21 (centres unmarked)"
experimental_readout = "Absorption wavelength"
measurement = "857 nm"

[[record]]
molecule = "CCN1/C(=C/C=C2\\CCCC(/C=C/C3=[N+](CC)c4ccc5cc(OC)ccc5c4C3(C)C)=C2Sc2ccc(C(=O)NCCN)cc2)C(C)(C)c2c1ccc1cc(OC)ccc21.[I-]"
experimental_readout = "Absorption wavelength"
measurement = "857 nm"

[[record]]
molecule = "CCN1/C(=C/C=C2\\CC(C(C)(C)C(=O)OC)CC(/C=C/C3=[N+](CC)c4ccc5cc(S(=O)(=O)[O-])ccc5c4C3(C)C)=C2Sc2ccc(C(=O)O)cc2)C(C)(C)c2c1ccc1cc(S(=O)(=O)O)ccc21 (centres unmarked)"
experimental_readout = "Absorption wavelength"
measurement = "849 nm"

[[record]]
molecule = "CCN1/C(=C/C=C2\\CC(c3ccc(C(=O)OC)cc3)CC(/C=C/C3=[N+](CC)c4ccc5cc(Br)ccc5c4C3(C)C)=C2Cl)C(C)(C)c2c1ccc1cc(Br)ccc21.[I-] (centres unmarked)"
experimental_readout = "Absorption wavelength"
measurement = "831 nm"


Kindly consider the entry below.
So what does the record say about Absorption wavelength for CCN1/C(=C/C=C2\CC(C(C)(C)C(=O)OC)CC(/C=C/C3=[N+](CC)c4ccc5cc(OC)ccc5c4C3(C)C)=C2Cl)C(C)(C)c2c1ccc1cc(OC)ccc21.[I-] (centres unmarked) ?
843 nm
